Test system: foreskin cells in which senescence was induced by doxorubicin
protocol: CellTiter-Glo cell viability of doxorubicin-induced senescent foreskin cells (Examples 1-2, 10, 11, 13; Tables 4, 63, 65)
Format: cell-based, human
stated_conditions: 30 μM test compound; doxorubicin-induced senescent foreskin cells; CellTiter-Glo; 0 μM = 100
measure_name: Survival (%)
Reply with just the number (in %).

Would you please look over these solved cases?
Input line: GET /values?readout=Survival (%)&item= `Cc1nnc(NC(=O)c2nc(S(=O)(=O)Cc3ccc(F)cc3)ncc2Cl)s1`
Output line: 3.5

Input line: GET /values?readout=Survival (%)&item= CN(Cc1cnc2nc(N)nc(N)c2n1)c1ccc(C(=O)N[C@@H](CCC(=O)O)C(=O)O)cc1 [LX-2901, Methotrexate, reference compound]
Output line: 93.6

Shift focus to the following entry.
Input line: GET /values?readout=Survival (%)&item= CN(C)CCn1cc(-c2ccc(F)cc2)c(-n2cccc2)n1 [LX-913]
Output line: 14.5

Source listed as patent US20250108036A1.
